system-under-test: T1, factor H binding protein (fHbp) variant 3.28 (Neisseria meningitidis M1239, fHbp v3.28, UniProt Q19KF7, strain)
T1 construct: also called fHbp v3.28; fHbp v3; source: E. coli BL21(DE3), purified (Ni-NTA; SEC when necessary)
assay-info: SPR
condition-info: both partners purified
observable: kon (M⁻¹ s⁻¹)
State just the number; it will be interpreted in M⁻¹ s⁻¹.

Input: Could you tell me which kon is on file for human anti-fHbp mAb 5F12 (antibody, V domains shown, source: Expi293, transient transfection, purified (protein G Sepharose)) VH: EVQLVESGGDLVKPGGSLRLSCAASGFTFSNYTMNWVRQAPGKGLEWVSSITSSSSFKYYADSVKGRFTISRDNAKNSVFLQMNSLRAEDTAIYYCARRIDSSDQDWFYYYGMDVWGLGTTVTVSS VL: QSVLTQPPSVSAAPGQRVTISCSGSSSNIGDNYISWYQQLPGTAPKLLIYDNDQRPSGTPDRFSASKSGTSATLGVTGLQTGDEADYYCGTWDSSLNAPVFGSGTKVTVL ?
Output: 350000

Input: Do the same for human anti-fHbp mAb 4B10 (antibody, V domains shown, source: Expi293, transient transfection, purified (protein G Sepharose)) VH: EVQLVESGGGLVKPGGSLRLSCAASGFAFSTYSLHWVRQAPGKGLEWVSAITSSGSFLYYADSLKGRFTVSRDNAKNSLFLQMNSLRAGDTAVYYCARALQVEDGFPMFSGLDVWGQGTTVTVSS VL: QTVVTQPPSVSEAPRQRVAISCSGSSSNIGDNSVSWYQQLPGKAPKLLIYDDDLLPSGVSDRFSASKSGTSASLAISGLQSEDEAEYYCAAWDDSLKGVVFGGGTKLTVL please
Output: 284000
